biological target: β-secretase(BACE) (Homo sapiens, UniProt P56817); construct: purchased Panvera; experiment: BACE FS1% Inhibition Assay; type: biochemical; conditions: 0.3 μM test compound; FS1 substrate
Sequence (P56817 46-501): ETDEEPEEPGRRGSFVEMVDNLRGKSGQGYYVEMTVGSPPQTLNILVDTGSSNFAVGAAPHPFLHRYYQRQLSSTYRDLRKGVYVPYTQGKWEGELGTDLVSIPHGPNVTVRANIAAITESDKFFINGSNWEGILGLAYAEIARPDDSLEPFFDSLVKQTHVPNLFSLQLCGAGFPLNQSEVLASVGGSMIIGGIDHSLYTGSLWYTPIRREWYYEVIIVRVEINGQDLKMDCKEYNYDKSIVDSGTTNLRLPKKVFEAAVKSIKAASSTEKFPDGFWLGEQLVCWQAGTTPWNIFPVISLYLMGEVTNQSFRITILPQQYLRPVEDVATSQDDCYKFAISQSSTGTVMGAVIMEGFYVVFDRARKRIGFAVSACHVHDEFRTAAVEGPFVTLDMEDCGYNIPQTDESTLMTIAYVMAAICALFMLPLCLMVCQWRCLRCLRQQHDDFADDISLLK
MEASURED_ATTRIBUTE: % Inhibition (FS) 0.3 μM

MOLECULE: C[C@@H](CNC(=O)C1CCCCC1)N1Cc2cc(Oc3ccccc3)ccc2N=C1N
% Inhibition (FS) 0.3 μM: <30%
--
MOLECULE: CN(C(=O)c1cccc(CN2Cc3cc(Oc4ccc5c(c4)CCCC5)ccc3N=C2N)c1)C1CCCCC1
% Inhibition (FS) 0.3 μM: <30%
--
MOLECULE: CCCC(=O)NCCN1Cc2cc(-c3cncnc3)ccc2N=C1N
% Inhibition (FS) 0.3 μM: <30%
--
MOLECULE: Cc1cc(C(=O)NCCN2Cc3cc(-c4cccc(CO)c4)ccc3N=C2N)c(C)o1
% Inhibition (FS) 0.3 μM: <30%
--
MOLECULE: CC1CCCCN1C(=O)CCCC(CCC(=O)N1CCCCC1C)N1Cc2cc(Oc3ccccc3)ccc2N=C1N (centres unmarked)
% Inhibition (FS) 0.3 μM: <30%

// field: % Inhibition (FS) 0.3 μM; key: CC(=O)Nc1ccccc1-c1ccc2c(c1)CN(CCNC(=O)C1CCCCC1)C(N)=N2 ; value = <30%

Value of % Inhibition (FS) 0.3 μM reported for the molecule NC1=Nc2ccc(Oc3ccccc3)cc2CN1C(CNC(=O)CC1CCCC1)C1CCCCC1 (centres unmarked) is 74%

The value of % Inhibition (FS) 0.3 μM measured for the molecule NC1=Nc2ccc(Oc3ccccc3)cc2CN1C1CCCCN(C(=O)C2CCCCC2)C1 (centres unmarked) turned out to be <30%

Lab note: CC(=O)c1cccc(-c2ccc3c(c2)CN(CCNC(=O)c2cc(C)oc2C)C(N)=N3)c1 gave % Inhibition (FS) 0.3 μM of <30%

// % Inhibition (FS) 0.3 μM lookup, molecule = CN(C(=O)c1cccc(CN2Cc3cc(Nc4ccc(C5CCCCC5)cc4)ccc3N=C2N)c1)C1CCCCC1 , result: <30%

// sample CC(C)(C)OC(=O)NCC(C1CCCCC1)N1Cc2cc(Oc3ccccc3)ccc2N=C1N (centres unmarked) , its % Inhibition (FS) 0.3 μM was 67%

Consider CCC[C@H](CNC(=O)CCC(C)C)N1Cc2cc(Oc3ccccc3)ccc2N=C1N . Its measured % Inhibition (FS) 0.3 μM is 101%

molecule NC1=Nc2ccc(-c3ccc(Cl)cc3)cc2CN1CCNC(=O)C1CCCCC1 , % Inhibition (FS) 0.3 μM observed: <30%

Record summary for CC(=O)Nc1cccc(Oc2ccc3c(c2)CN(Cc2cccc(C(=O)N(C)C4CCCCC4)c2)C(N)=N3)c1 : reported % Inhibition (FS) 0.3 μM = <30%

Recorded result, NC1=Nc2ccc(Oc3ccccc3)cc2CN1Cc1cccc(CNC(=O)C2CCCCC2)c1 , % Inhibition (FS) 0.3 μM: <30%

Memo: CN(C(=O)c1cccc(CN2Cc3cc(-c4cccc(-c5ccccc5)c4)ccc3N=C2N)c1)C1CCCCC1 , reported % Inhibition (FS) 0.3 μM: <30%

Quick note, % Inhibition (FS) 0.3 μM for CC(C)CCC(=O)NCC(Cc1ccc(O)cc1)N1Cc2cc(Oc3ccccc3)ccc2N=C1N (centres unmarked) landed at <30%

CN(C(=O)c1cccc(CN2Cc3cc(Nc4ccc5ccccc5c4)ccc3N=C2N)c1)C1CCCCC1 yielded % Inhibition (FS) 0.3 μM of <30%

Lookup result for CC(C)(C)C(=O)Nc1cccc(CN2Cc3cc(Oc4ccccc4)ccc3N=C2N)c1 ; measured % Inhibition (FS) 0.3 μM: <30%

Measured % Inhibition (FS) 0.3 μM of CC1CCC(NC(=O)c2cccc(CN3Cc4cc(Oc5ccccc5)ccc4N=C3N)c2)CC1 (centres unmarked) : <30%

Value of % Inhibition (FS) 0.3 μM reported for the molecule Cc1ccccc1-c1ccc2c(c1)CN(CCNC(=O)C(C)(C)C)C(N)=N2 is 63%

The recorded % Inhibition (FS) 0.3 μM for CCCC=Cc1ccc2c(c1)CN(CCNC(=O)CC1CCCC1)C(N)=N2 is <30%

The recorded % Inhibition (FS) 0.3 μM for CC(=O)Nc1cccc(-c2ccc3c(c2)CN(Cc2cccc(C(=O)N(C)C4CCCCC4)c2)C(N)=N3)c1 is <30%

The value of % Inhibition (FS) 0.3 μM measured for the molecule NC1=Nc2ccc(Oc3ccccc3)cc2CN1C1CCN(C(=O)C23CC4CC(CC(C4)C2)C3)CC1 turned out to be <30%

GET /value?item= NC1=Nc2ccc(Oc3ccccc3)cc2CN1Cc1cccc(CNC(=O)C(F)(F)F)c1 &field=% Inhibition (FS) 0.3 μM returns <30%
